Reported logD values follow for various molecules
Assay: method code SF-AS, from PMID: 4730594
Settings: pH 7.0
Experimental readout: logD

chemical_structure=Cc1c[n+]([O-])c2ccccc2c1[N+](=O)[O-] experimental_readout=logD recorded_number=1.06
chemical_structure=O=[N+]([O-])c1cc[n+]([O-])c2c([N+](=O)[O-])cccc12 experimental_readout=logD recorded_number=0.76
chemical_structure=O=[N+]([O-])c1cc[n+]([O-])c2ccccc12 experimental_readout=logD recorded_number=1.02
